Cited source for all entries: patent US20060258729A1

target: E. coli pol IIIE (Escherichia coli); construct: purchased Enzyco, Denver, Colo; experiment: DNA polymerase assay, E. coli pol IIIE; type: biochemical; settings: 80 μg/mL (190-260 μM) final concentration; all four dNTPs
Sequence (P10443 whole entry): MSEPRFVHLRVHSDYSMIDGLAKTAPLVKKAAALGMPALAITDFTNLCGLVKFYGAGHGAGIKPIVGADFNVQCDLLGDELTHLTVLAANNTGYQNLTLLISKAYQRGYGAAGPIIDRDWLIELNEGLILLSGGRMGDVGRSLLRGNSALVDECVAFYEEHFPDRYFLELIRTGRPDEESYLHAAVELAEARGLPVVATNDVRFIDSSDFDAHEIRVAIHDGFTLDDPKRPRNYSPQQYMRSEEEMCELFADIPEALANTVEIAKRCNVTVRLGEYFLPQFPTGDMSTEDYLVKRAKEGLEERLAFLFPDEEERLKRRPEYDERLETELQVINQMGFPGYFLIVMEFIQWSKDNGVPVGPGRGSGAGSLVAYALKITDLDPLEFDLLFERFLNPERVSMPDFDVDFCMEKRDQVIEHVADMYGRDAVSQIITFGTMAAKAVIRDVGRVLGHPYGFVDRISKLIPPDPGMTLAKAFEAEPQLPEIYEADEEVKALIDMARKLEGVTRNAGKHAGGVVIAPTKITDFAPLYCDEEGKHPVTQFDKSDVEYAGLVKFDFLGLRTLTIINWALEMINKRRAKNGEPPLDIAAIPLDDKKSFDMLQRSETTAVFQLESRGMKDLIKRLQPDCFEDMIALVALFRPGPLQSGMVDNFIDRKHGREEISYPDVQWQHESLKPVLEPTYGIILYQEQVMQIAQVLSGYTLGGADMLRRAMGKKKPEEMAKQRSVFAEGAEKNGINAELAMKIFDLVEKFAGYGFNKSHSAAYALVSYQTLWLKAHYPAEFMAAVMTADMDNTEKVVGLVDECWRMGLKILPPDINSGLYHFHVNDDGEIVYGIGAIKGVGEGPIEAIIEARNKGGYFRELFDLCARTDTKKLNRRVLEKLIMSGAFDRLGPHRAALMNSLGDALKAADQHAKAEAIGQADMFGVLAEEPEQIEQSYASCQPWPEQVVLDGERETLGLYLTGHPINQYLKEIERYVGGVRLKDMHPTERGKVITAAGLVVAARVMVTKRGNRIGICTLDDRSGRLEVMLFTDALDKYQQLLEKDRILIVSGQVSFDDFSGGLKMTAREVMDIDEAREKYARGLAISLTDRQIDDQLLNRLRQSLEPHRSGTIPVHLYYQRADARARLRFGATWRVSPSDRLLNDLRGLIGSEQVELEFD
quantityKind: Percent Enzymatic Inhibition E. coli pol IIIE

Reference set, count: 4
• COc1ccc(-c2cc(C(=O)NN=Cc3cc(OC)c(OC)c(OC)c3)[nH]n2)cc1 = Inactive
• CCOc1cc(C=NNC(=O)c2cc(-c3cccc(OC)c3)n[nH]2)ccc1O = Inactive
• COc1cccc(-c2cc(C(=O)NN=Cc3cccc(O)c3)[nH]n2)c1 = Inactive
• O=C(NN=Cc1ccc(O)cc1O)c1cc(-c2ccccc2)n[nH]1 = Inactive

[ask] # return Percent Enzymatic Inhibition E. coli pol IIIE for COc1ccc(-c2cc(C(=O)NN=Cc3ccc(O)cc3)[nH]n2)cc1 , test system: E. coli pol IIIE (Escherichia coli)
[reply] Inactive

[ask] # return Percent Enzymatic Inhibition E. coli pol IIIE for COc1ccc(-c2cc(C(=O)NN=Cc3ccccc3)[nH]n2)cc1 , test system: E. coli pol IIIE (Escherichia coli)
[reply] 3.4%

[ask] # return Percent Enzymatic Inhibition E. coli pol IIIE for CCCCc1cc(C=NNC(=O)c2cc(-c3ccccc3)n[nH]2)cc(CCCC)c1O , test system: E. coli pol IIIE (Escherichia coli)
[reply] 7.2%

[ask] # return Percent Enzymatic Inhibition E. coli pol IIIE for Cc1ccc(C=NNC(=O)c2cc(-c3ccccc3)n[nH]2)cc1 , test system: E. coli pol IIIE (Escherichia coli)
[reply] Inactive

[ask] # return Percent Enzymatic Inhibition E. coli pol IIIE for O=C(NN=Cc1cc(Br)ccc1O)c1cc(-c2ccccc2)n[nH]1 , test system: E. coli pol IIIE (Escherichia coli)
[reply] 9.0%

###

target: B. subtilis pol IIIE (Bacillus subtilis); construct: made in house; test: DNA polymerase assay, B. subtilis pol IIIE; assay type: biochemical; settings: 80 μg/mL (190-260 μM) final concentration; all four dNTPs
quantityKind: Percent Enzymatic Inhibition B. subtilis pol IIIE (%)
Express it in %; write the number only.

Reference set, count: 5
• CCCCc1cc(C=NNC(=O)c2cc(-c3ccccc3)n[nH]2)cc(CCCC)c1O = 7.6
• COc1cccc(-c2cc(C(=O)NN=Cc3ccc(O)cc3)[nH]n2)c1 = 18.1
• O=C(NN=Cc1cc(Br)ccc1O)c1cc(-c2ccccc2)n[nH]1 = 7.7
• Cc1ccc(C=NNC(=O)c2cc(-c3ccccc3)n[nH]2)cc1 = 16.7
• CCN1C(=O)C(=NNC(=O)c2cc(-c3ccccc3)n[nH]2)c2ccccc21 = 0.5

[ask] Fill in reported Percent Enzymatic Inhibition B. subtilis pol IIIE for this entry: COc1cccc(-c2cc(C(=O)NN=Cc3cccc(O)c3)[nH]n2)c1
[reply] 9.6

[ask] Fill in reported Percent Enzymatic Inhibition B. subtilis pol IIIE for this entry: COc1ccc(C=NNC(=O)c2cc(-c3ccc(Cl)cc3)n[nH]2)cc1OC
[reply] 13.7

###

Biological target: B. subtilis pol IIIC (Bacillus subtilis, UniProt P13267)
Construct: made in house
Sequence (P13267 whole entry): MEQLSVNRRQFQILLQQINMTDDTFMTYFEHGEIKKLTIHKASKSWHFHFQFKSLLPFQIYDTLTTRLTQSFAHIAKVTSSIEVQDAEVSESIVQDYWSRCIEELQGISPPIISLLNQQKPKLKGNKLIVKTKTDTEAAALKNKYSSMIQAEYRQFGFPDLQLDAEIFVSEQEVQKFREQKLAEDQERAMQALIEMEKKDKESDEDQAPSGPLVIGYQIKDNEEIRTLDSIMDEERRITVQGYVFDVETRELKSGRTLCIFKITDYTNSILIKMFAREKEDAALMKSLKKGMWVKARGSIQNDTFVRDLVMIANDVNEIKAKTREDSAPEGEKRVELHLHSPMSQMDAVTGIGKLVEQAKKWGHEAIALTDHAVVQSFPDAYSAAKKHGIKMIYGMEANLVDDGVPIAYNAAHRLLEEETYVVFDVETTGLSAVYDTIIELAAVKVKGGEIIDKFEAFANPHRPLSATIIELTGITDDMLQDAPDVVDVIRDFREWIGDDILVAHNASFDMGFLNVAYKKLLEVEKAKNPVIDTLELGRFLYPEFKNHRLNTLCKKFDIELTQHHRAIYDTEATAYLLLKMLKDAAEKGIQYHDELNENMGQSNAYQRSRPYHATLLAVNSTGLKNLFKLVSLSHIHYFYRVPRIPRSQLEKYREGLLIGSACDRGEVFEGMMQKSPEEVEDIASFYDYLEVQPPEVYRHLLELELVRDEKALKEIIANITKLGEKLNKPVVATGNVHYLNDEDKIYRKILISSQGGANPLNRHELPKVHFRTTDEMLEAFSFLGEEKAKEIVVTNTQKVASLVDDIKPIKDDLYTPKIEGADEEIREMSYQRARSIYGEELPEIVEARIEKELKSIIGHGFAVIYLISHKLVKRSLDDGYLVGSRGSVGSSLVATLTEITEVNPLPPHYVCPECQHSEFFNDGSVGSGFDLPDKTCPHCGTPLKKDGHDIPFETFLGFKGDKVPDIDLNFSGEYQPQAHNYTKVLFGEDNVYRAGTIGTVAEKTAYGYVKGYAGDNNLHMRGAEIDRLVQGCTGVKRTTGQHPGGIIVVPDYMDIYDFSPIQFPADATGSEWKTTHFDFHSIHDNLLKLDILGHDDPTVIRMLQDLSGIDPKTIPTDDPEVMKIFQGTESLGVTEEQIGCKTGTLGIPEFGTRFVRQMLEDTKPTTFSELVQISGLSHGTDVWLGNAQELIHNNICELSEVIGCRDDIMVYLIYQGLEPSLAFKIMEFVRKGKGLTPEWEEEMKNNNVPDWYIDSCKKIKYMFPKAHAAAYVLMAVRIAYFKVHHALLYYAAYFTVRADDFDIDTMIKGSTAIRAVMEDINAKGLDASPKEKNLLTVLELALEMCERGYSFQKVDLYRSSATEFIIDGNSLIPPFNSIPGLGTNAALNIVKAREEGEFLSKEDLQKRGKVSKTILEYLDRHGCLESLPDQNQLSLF
Test: DNA polymerase assay, B. subtilis pol IIIC
Format: biochemical
Conditions: 80 μg/mL (190-260 μM) final concentration; all four dNTPs
Experimental: Recombinant, purified pol IIIC and pol IIIE from Bacillus subtilis were obtained using known methods (Hammond et al., Gene 98: 29-36 (1991), regarding pol IIIC; Barnes et al., J. Bacteriol. 184, 3834-3838 (2002), regarding pol IIIE). […] The plates were washed with the HCl solution followed by ice cold 90% ethanol and then dried and counted in a liquid scintillation counter. […] In addition, percent inhibition values are calculated as the percent reduction in the activity of a DMSO (diluent) control.
Percent Enzymatic Inhibition B. subtilis pol IIIC less than 1% is yes (1); Percent Enzymatic Inhibition B. subtilis pol IIIC greater than or equal to 1% is no (0).

Would you please look over these solved cases?
* Cc1ccc(C=NNC(=O)c2cc(-c3ccccc3)n[nH]2)cc1 [Compound 11] | no (0)
* COc1cccc(C=NNC(=O)c2cc(-c3ccc(C)cc3)n[nH]2)c1O [Compound 8] | no (0)
* O=C(NN=Cc1cc(Br)ccc1O)c1cc(-c2ccccc2)n[nH]1 [Compound 6] | no (0)
* COc1cccc(-c2cc(C(=O)NN=Cc3ccc(O)cc3)[nH]n2)c1 [Compound 14] | yes (1)
* CCN1C(=O)C(=NNC(=O)c2cc(-c3ccccc3)n[nH]2)c2ccccc21 [Compound 20] | yes (1)

Now look at this entry.
[ask] Does COc1ccc(-c2cc(C(=O)NN=Cc3ccccc3)[nH]n2)cc1 [Compound 13] have Percent Enzymatic Inhibition B. subtilis pol IIIC strictly under 1%?
[reply] no (0)

###

biological target: B. subtilis pol IIIE (Bacillus subtilis, UniProt O34623); construct: made in house; test: DNA polymerase assay, B. subtilis pol IIIE; format: biochemical; conditions: B. subtilis Pol IIIE IC50, −dATP, in the absence of dATP
Sequence (O34623 whole entry): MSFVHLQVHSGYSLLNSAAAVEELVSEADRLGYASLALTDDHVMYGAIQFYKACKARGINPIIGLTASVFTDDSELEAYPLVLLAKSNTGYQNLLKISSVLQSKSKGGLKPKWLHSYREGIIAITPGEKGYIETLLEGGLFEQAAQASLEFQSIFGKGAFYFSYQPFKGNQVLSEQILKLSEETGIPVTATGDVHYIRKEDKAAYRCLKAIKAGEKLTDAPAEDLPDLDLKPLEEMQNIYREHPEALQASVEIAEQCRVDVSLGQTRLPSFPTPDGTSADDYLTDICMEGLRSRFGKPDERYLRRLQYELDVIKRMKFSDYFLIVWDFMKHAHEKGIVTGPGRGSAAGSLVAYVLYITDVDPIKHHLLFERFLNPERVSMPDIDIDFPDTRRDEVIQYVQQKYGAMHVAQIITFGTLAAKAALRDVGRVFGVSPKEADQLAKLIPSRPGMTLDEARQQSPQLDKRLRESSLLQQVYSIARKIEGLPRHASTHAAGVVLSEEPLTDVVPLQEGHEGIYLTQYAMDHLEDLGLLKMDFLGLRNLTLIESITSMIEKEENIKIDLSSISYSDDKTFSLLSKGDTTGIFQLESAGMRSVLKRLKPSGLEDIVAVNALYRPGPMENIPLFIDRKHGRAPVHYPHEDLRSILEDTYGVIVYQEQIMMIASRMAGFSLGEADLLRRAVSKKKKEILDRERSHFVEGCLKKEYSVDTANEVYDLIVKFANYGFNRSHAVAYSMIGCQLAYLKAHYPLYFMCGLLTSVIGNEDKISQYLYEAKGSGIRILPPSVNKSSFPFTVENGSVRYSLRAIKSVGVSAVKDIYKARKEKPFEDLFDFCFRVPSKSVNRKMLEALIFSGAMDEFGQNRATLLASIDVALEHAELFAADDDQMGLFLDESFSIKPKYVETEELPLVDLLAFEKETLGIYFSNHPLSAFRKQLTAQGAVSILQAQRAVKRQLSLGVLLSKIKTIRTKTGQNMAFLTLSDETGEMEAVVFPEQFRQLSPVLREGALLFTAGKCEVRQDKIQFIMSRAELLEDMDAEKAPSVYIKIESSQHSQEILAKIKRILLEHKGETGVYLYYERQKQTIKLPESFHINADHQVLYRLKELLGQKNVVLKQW
pIC50: −log10 of the molar value.
pIC50 vs 4: at or above is 1, below is 0.

• COc1cc(C=NNC(=O)c2cc(-c3ccccc3)n[nH]2)cc(OC)c1OC = 1
• COc1ccc(-c2cc(C(=O)NN=Cc3ccc(OC)c(OC)c3)[nH]n2)cc1 = 0
• COc1cccc(-c2cc(C(=O)NN=Cc3ccc(OC)c(OC)c3)[nH]n2)c1 = 1
• COc1cc(C=NNC(=O)c2cc(-c3ccccc3)n[nH]2)ccc1O = 0
• CCOc1ccc(-c2cc(C(=O)NN=Cc3ccc(O)c(OC)c3)[nH]n2)cc1 = 0
• COc1ccc(-c2cc(C(=O)NN=Cc3cc(OC)c(OC)c(OC)c3)[nH]n2)cc1 = 0

Now look at this entry.
[ask] Hello, I need to know if O=C(NN=Cc1ccc(O)cc1O)c1cc(-c2ccccc2)n[nH]1 has measured pIC50 not below 4. Thanks!
[reply] 0

###

Below, each entry is listed alongside its reported IC50.
target: B. subtilis pol IIIE (Bacillus subtilis, UniProt O34623); construct: made in house; experiment: DNA polymerase assay, B. subtilis pol IIIE; format: biochemical; details: B. subtilis Pol IIIE IC50, −dGTP, in the absence of dGTP

Reference set, count: 2
- COc1ccc(-c2cc(C(=O)NN=Cc3cc(OC)c(OC)c(OC)c3)[nH]n2)cc1: > 780 µM
- CCOc1ccc(-c2cc(C(=O)NN=Cc3ccc(O)c(OC)c3)[nH]n2)cc1: > 841 µM

Moving on to the next compound.
[ask] Fill in reported IC50 for this entry: COc1ccc(-c2cc(C(=O)NN=Cc3ccc(OC)c(OC)c3)[nH]n2)cc1
[reply] > 1000 µM

###

target: B. subtilis pol IIIC (Bacillus subtilis, UniProt P13267); construct: made in house; assay: DNA polymerase assay, B. subtilis pol IIIC; type: biochemical; details: B. subtilis Pol IIIC IC50, −dGTP, in the absence of dGTP
Below, each entry is listed alongside its reported IC50.
Express it in µM; write the number only.

* O=C(NN=Cc1ccc(O)cc1O)c1cc(-c2ccccc2)n[nH]1 | 98

[ask] Fill in reported IC50 for this entry: COc1ccc(-c2cc(C(=O)NN=Cc3ccc(O)cc3)[nH]n2)cc1
[reply] 60

[ask] Fill in reported IC50 for this entry: COc1cc(C=NNC(=O)c2cc(-c3ccccc3)n[nH]2)cc(OC)c1OC
[reply] 14

###

Below, each entry is listed alongside its reported pIC50.
target: B. subtilis pol IIIE (Bacillus subtilis); construct: made in house; experiment: DNA polymerase assay, B. subtilis pol IIIE; format: biochemical; details: B. subtilis Pol IIIE IC50, −dCTP, in the absence of dCTP
pIC50: −log10 of the molar value.

Reference set, count: 2
- COc1ccc(-c2cc(C(=O)NN=Cc3ccc(OC)c(OC)c3)[nH]n2)cc1: < 3.00
- CCOc1ccc(-c2cc(C(=O)NN=Cc3ccc(O)c(OC)c3)[nH]n2)cc1: < 3.08

Moving on to the next molecule.
[ask] Fill in reported pIC50 for this entry: COc1ccc(-c2cc(C(=O)NN=Cc3cc(OC)c(OC)c(OC)c3)[nH]n2)cc1
[reply] < 3.11

###

target: B. subtilis pol IIIC (Bacillus subtilis, UniProt P13267); construct: made in house; assay: DNA polymerase assay, B. subtilis pol IIIC; type: biochemical; settings: 80 μg/mL (190-260 μM) final concentration; all four dNTPs
quantityKind: Percent Enzymatic Inhibition B. subtilis pol IIIC

• COc1ccc(C=NNC(=O)c2cc(-c3ccc(Cl)cc3)n[nH]2)cc1OC [Compound 15] = Inactive
• CCCCc1cc(C=NNC(=O)c2cc(-c3ccccc3)n[nH]2)cc(CCCC)c1O [Compound 12] = Inactive
• COc1cccc(-c2cc(C(=O)NN=Cc3ccc(OC)c(OC)c3)[nH]n2)c1 [Compound 2] = Inactive
• COc1cccc(-c2cc(C(=O)NN=Cc3cccc(O)c3)[nH]n2)c1 [Compound 10] = Inactive
